Below, each entry is listed alongside its reported aptazyme ON/OFF ratio.
B1: Pistol ribozyme (parent)
chain: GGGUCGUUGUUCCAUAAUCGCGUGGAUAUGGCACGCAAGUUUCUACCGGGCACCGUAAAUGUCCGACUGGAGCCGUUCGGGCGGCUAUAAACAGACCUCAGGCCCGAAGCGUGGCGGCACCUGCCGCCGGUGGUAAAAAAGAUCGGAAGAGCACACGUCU

Variants of: B1
PROTOCOL_TEXT: aptazyme ON/OFF ratio, guanine; higher = stronger switching; co-transcriptional cleavage with and without guanine
Just the number, please.

Would you please look over these solved cases?
>>> df
           mutation_annotation      property_measured  measured_result
0  U7C U8C U10C U11G C12G C13A  aptazyme ON/OFF ratio             1.15
1            U7A U8G U11A C13G  aptazyme ON/OFF ratio              1.4
2            U7G G9U U10A C12A  aptazyme ON/OFF ratio             1.65
3   U7C U8C G9A U10G C12G C13U  aptazyme ON/OFF ratio             1.16
4   U7A U8A G9C U11C C12U C13A  aptazyme ON/OFF ratio             1.13

Give its aptazyme ON/OFF ratio value. Item: U7A G9C U11C C12U C13U
1.16

Give its aptazyme ON/OFF ratio value. Item: G9U U10G U11C C13U
1.14

Give its aptazyme ON/OFF ratio value. Item: U7G U8A G9A U10A C12U C13G
1.07

Give its aptazyme ON/OFF ratio value. Item: U7C U8G G9A U10G U11G C12U C13G
1.25

Give its aptazyme ON/OFF ratio value. Item: U7C U8G U10A U11A C12U
1.57
